target: TIMM44; experiment: pooled miR-30 sensor sort-seq; sequence = guide strand; conditions: shRNA; note: reference of the scale not given here
Tick label 1 if sensor-assay potency score (higher = more potent) is -1 or greater. Tick label 0 if sensor-assay potency score (higher = more potent) is less than -1.

Inquiry: Identify whether the reported sensor-assay potency score (higher = more potent) of the following sequence is -1 or greater: "ATCTTCATCTCGAAGAACCGGT"
Reply text: label 1

Inquiry: Identify whether the reported sensor-assay potency score (higher = more potent) of the following sequence is -1 or greater: "TTCGTCATACTTCATCTTCATC"
Reply text: label 0

Inquiry: Identify whether the reported sensor-assay potency score (higher = more potent) of the following sequence is -1 or greater: "TTCCGTAGCACCTCGCTCGTCC"
Reply text: label 1

Inquiry: Identify whether the reported sensor-assay potency score (higher = more potent) of the following sequence is -1 or greater: "TTCTTGTTTGACATTATCTAGC"
Reply text: label 1

Inquiry: Identify whether the reported sensor-assay potency score (higher = more potent) of the following sequence is -1 or greater: "TGACATTATCTAGCAAGCCGGA"
Reply text: label 0

---

target: SRPK1; assay: pooled miR-30 sensor sort-seq; sequence = guide strand; details: shRNA
REPORTED PROPERTY: sensor-assay potency score (higher = more potent)
Please give the numeric answer without any surrounding text.

SEQ	STUDY TARGET	RECORDED VALUE
TATTCTTTGACATTTTGTCAGC	SRPK1	-0.83
TAACTTTCGGATCACATGGTAT	SRPK1	-1.15
TAGCATTATGTAGATCCTCTTT	SRPK1	-0.224

Inquiry: Item under review: "ATCTAGTAGTTGAACAACCATT" . Reported sensor-assay potency score (higher = more potent)?
Reply text: -1.39

---

molecular target: PLN; assay: pooled miR-30 sensor sort-seq; sequence = guide strand; settings: shRNA
Tick 1 if sensor-assay potency score (higher = more potent) is -0.6 or greater. Tick 0 if sensor-assay potency score (higher = more potent) is less than -0.6.

SEQ	STUDY TARGET	CATEGORY
TTAGTCTTAATCTTGACCTTTT	PLN	0

Inquiry: Identify whether the reported sensor-assay potency score (higher = more potent) of the following sequence is -0.6 or greater: "TCTGTAGCTTTTGACGTGCTTG"
Reply text: 1

Inquiry: Identify whether the reported sensor-assay potency score (higher = more potent) of the following sequence is -0.6 or greater: "TATAGCTGAGCGAGTGAGGTAT"
Reply text: 1

Inquiry: Identify whether the reported sensor-assay potency score (higher = more potent) of the following sequence is -0.6 or greater: "TAAGATGAGACAGAAATTGATA"
Reply text: 0

Inquiry: Identify whether the reported sensor-assay potency score (higher = more potent) of the following sequence is -0.6 or greater: "TTGTTTTCCTGTCTGCATGGGA"
Reply text: 1

Inquiry: Identify whether the reported sensor-assay potency score (higher = more potent) of the following sequence is -0.6 or greater: "TTTCACAAAGAAACTCTTCTAC"
Reply text: 1

Inquiry: Identify whether the reported sensor-assay potency score (higher = more potent) of the following sequence is -0.6 or greater: "TTTAGTCTTAATCTTGACCTTT"
Reply text: 1

---

Reported sensor-assay potency score (higher = more potent) values for the following sequences.
molecular target: C1GALT1C1; test: pooled miR-30 sensor sort-seq; sequence = guide strand; settings: shRNA

SEQ	RECORDED VALUE
TTTATCTTCAGATATCTTCCAA	0.63
TAAGTCTTTTCATTGATTCTAC	-0.486
TTTGTTAGGAGCTTGTAGGTGA	0.841
TATCTTCTTTGTTAGGAGCTTG	-0.577

We now examine a further sequence.
Inquiry: I'm curious: which sensor-assay potency score (higher = more potent) was measured for "TACATCATCACATGCATCTGAT" tested on C1GALT1C1?
Reply text: -0.0617
